- Target System: FAAH (Rattus norvegicus, UniProt P97612)
- Construct: Preparation of Rat Brain Membranes Preparations (FAAH Enzyme Solution); from tissue; host or cells: rat cerebrum (brain membrane preparation)
- Sequence (P97612 whole entry): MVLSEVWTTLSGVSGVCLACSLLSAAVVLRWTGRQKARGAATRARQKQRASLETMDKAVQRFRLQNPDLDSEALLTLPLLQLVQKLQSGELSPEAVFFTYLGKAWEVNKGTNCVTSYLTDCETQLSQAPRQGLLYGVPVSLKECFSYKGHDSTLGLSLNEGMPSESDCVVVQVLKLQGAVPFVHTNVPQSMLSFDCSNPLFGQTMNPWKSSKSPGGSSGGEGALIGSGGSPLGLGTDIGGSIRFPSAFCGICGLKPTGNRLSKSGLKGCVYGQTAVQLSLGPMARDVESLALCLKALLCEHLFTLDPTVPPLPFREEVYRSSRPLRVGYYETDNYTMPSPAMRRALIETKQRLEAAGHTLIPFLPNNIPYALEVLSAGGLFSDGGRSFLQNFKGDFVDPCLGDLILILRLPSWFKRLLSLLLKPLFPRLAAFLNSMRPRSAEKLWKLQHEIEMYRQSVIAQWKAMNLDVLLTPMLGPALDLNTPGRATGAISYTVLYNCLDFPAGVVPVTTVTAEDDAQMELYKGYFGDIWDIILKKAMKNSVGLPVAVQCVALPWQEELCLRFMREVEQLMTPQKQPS
- Procedure Details: Determination of FAAH inhibitory activity in rat (rat brain membrane preparations, [3H]-anandamide hydrolysis)
- Format: biochemical
- Measurement Conditions: rat brain membrane preparations; test substance 0.1 nM to 1 μM; read-out: FAAH Inhibition IC50
Please provide measured IC50 for the entries that follow.
Answers are plain numbers, in nM.

- COCCc1ncc2c(n1)n(C)c(=O)n2C(=O)N1CC(c2cccc(F)c2)C1: 4
- CCOC(=O)CN(C)C(=O)n1c(=O)n(C)c2nc(-c3ccccc3)ncc21: 46
- Cn1c(=O)n(C(=O)N2CCCC2)c2nc(-c3ccc(OC(F)(F)F)cc3)ncc21: 32

input: Reported IC50 for Cn1c(=O)n(C(=O)N2CCCC2)c2nc(CCc3ccccc3)ncc21 : what is it?
output: 47
